tested on: Saccharomyces cerevisiae; test: protein stability index of tFT-peptide fusion (C-terminal peptide) (PSI (0-1 scale)); higher = more stable (slower turnover); settings: genetic background: das1 deletion; temperature: 30 C
MEASURED ENDPOINT: protein stability index
// return a plain number; no unit text

Give the reported protein stability index for PAAKGKNLSFKR [RRP6 C-terminal 12 aa] (system: Saccharomyces cerevisiae). 0.719

What reported protein stability index corresponds to SSKAIQGNFDDL [SPB4 C-terminal 12 aa] on Saccharomyces cerevisiae? 0.704

Give the reported protein stability index for KQGKKKKDCVIM [SKT5 C-terminal 12 aa] (system: Saccharomyces cerevisiae). 0.719

GET /values?readout=protein stability index&system=Saccharomyces cerevisiae&item= TSNGGVEETMKM [ARX1 C-terminal 12 aa] 0.682

Find the measured protein stability index: item VYTSKTQYKFDI [YNR071C C-terminal 12 aa] , target or system Saccharomyces cerevisiae. 0.685

Reported protein stability index for Saccharomyces cerevisiae, given NLSEAIHDNNGS [NNK1 C-terminal 12 aa] ? 0.717

Provide value of protein stability index for this record tested with Saccharomyces cerevisiae: IYKLEYYLLTMQ [YOR199W C-terminal 12 aa] 0.574

What measured protein stability index is associated with IGDFFKNLNMAK [NUP159 C-terminal 12 aa] on Saccharomyces cerevisiae? 0.715

Source: the supplement of paper PMC10724198
